Property: EC50; scope: individual compounds
- Tested target: STING (Homo sapiens, UniProt Q86WV6, G230A/H232R/R293Q/R71H)
- Sequence (Q86WV6 whole entry R71H/G230A/H232R/R293Q): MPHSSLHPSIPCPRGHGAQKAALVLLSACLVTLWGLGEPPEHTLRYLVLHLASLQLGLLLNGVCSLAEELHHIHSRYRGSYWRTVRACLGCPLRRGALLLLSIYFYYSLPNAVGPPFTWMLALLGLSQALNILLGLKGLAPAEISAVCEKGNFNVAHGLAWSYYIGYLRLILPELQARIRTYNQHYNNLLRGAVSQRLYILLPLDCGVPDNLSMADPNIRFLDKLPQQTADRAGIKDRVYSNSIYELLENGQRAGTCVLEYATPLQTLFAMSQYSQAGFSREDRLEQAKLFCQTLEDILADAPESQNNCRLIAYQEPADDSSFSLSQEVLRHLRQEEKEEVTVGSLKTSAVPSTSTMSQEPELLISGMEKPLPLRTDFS
- Assay: STING reporter assay in THP1-Dual KO-IFNAR2 cells (2′3′cGAMP stimulation, luciferase reporter)
- Measurement context: 15 μM 2′3′cGAMP stimulation, 24 h, read-out: Pharmaron, THP1_IFNAR2 STING 24 h Luci Normalized: GeoMean EC50

Solved entries:
Compound	EC50
O=C(Nc1c[nH]c2ccc(CCCc3ccc(C(F)(F)F)cc3)cc12)C1CCC1 [Compound 139]	0.04 to 0.2 µM
COC(CCc1ccc2[nH]cc(NC(=O)C3CCC3)c2c1)c1ccc(C(F)(F)F)cc1 (stereo not shown) [Compound 133]	0.2 to 1 µM
CC(=O)Nc1c[nH]c2c(F)cc(CCOc3ccc(C(F)(F)F)cc3)cc12 [Compound 270]	1 to 5 µM

**Q:** Quick check: EC50 of CC(=O)Nc1c[nH]c2ccc(CCOc3cccc(C(C)N(C)C)c3)cc12 (stereo not shown) [Compound 536] ?
**A:** 5 to 100 µM

----------
- Tested target: STING (Homo sapiens, UniProt Q86WV6, G230A/H232R/R293Q/R71H)
- Assay: STING reporter assay in THP1-Dual KO-IFNAR2 cells (2′3′cGAMP stimulation, luciferase reporter)
- Measurement context: 15 μM 2′3′cGAMP stimulation, 24 h, read-out: Pharmaron, THP1_IFNAR2 STING 24 h Luci Normalized: GeoMean EC50
pEC50: −log10 of the molar value.
Measured pEC50 accompanies every entry in the list below.

Molecule	Result
CC1(C(=O)Nc2c[nH]c3ccc(OCCc4ccc(C(F)(F)F)nc4)cc23)COC1 [Compound 372]	5.30 to 6.00
CC(=O)Nc1c[nH]c2ccc(OCCc3ccc(C(F)(F)F)cc3)c(Br)c12 [Compound 350]	5.30 to 6.00
CO[C@H]1C[C@@H](C(=O)Nc2c[nH]c3ccc(OCCc4ccc(C(F)(F)F)cc4)cc23)C1 [Compound 222]	6.70 to 7.40
CC1(C(=O)Nc2c[nH]c3ccc(OCC[C@@H]4C[C@@H]5CN(CC(F)(F)F)C[C@@H]5C4)cc23)CCOC1 (stereo partly drawn) [Compound 306]	6.00 to 6.70
N#CC1CCC1C(=O)Nc1c[nH]c2ccc(O[C@H]3C[C@@H](c4ccc(C(F)(F)F)cc4)C3)cc12 (stereo partly drawn) [Compound 355]	6.00 to 6.70

**Q:** What pEC50 value was documented for this molecule, O=C(Nc1c[nH]c2ccc(O[C@H]3C[C@@H](c4ccc(C(F)(F)F)cc4)C3)cc12)C1(F)CC1 [Compound 302] ?
**A:** 6.00 to 6.70

**Q:** Given the molecule CC1(C(=O)Nc2c[nH]c3ccc(OCC[C@@H]4C[C@@H]5CN(CC(F)(F)F)C[C@@H]5C4)cc23)CCC1 [Compound 369] , what is its reported pEC50?
**A:** 6.00 to 6.70

**Q:** Please look up its pEC50: CC1(C(=O)Nc2c[nH]c3ccc(OCc4ccc(C(F)(F)F)cc4)cc23)COC1 [Compound 166]
**A:** 6.70 to 7.40

**Q:** May I ask what pEC50 has been recorded for N#C[C@H]1C[C@@H]1C(=O)Nc1c[nH]c2ccc(O[C@H]3C[C@@H](c4ccc(C(F)(F)F)cc4)C3)cc12 (stereo in doubt) [Compound 332] ?
**A:** 6.00 to 6.70
